tested on: HepG2; experiment: cytotoxicity call (relative viability < 0.9); conditions: 10 µM
In all, about 39,000 compounds went through this assay and about 3,300 (8.5%) were called active. What follows is part of a selection rich in actives, with near analogues and random picks from the rest.
measurementName: cytotoxicity call

cpdsmiles=C[C@H]1CN([C@@H](C)CO)C(=O)Cc2cc(NS(=O)(=O)c3ccc(Cl)cc3)ccc2O[C@@H]1CN(C)Cc1ccc(C(F)(F)F)cc1 measurementname="cytotoxicity call" endpointvalue=active
cpdsmiles=C=CCC[C@@H](Cc1ccc(F)cc1)C(=O)O[C@@H](CNC(=O)[C@@H](CC=C)CC(=O)N(CCO)Cc1ccccc1)c1ccccc1 measurementname="cytotoxicity call" endpointvalue=active
cpdsmiles=CC(C)OC(=O)[C@H](C)N[P@](=O)(OC[C@H]1O[C@@H](n2ccc(=O)[nH]c2=O)[C@@](C)(O)[C@@H]1O)Oc1ccccc1 measurementname="cytotoxicity call" endpointvalue=inactive
cpdsmiles=COc1ccc(S(=O)(=O)Nc2ccc3c(c2)C(=O)N([C@@H](C)CO)C[C@@H](C)[C@@H](CN(C)C(=O)Nc2c(C)noc2C)OCCCC[C@H](C)O3)cc1 measurementname="cytotoxicity call" endpointvalue=inactive
cpdsmiles=COc1nc(N)nc2c1ncn2[C@@H]1O[C@H](CO[P@@](=O)(N[C@@H](C)C(=O)OCC(C)(C)C)Oc2cccc3ccccc23)[C@@H](O)[C@@]1(C)O measurementname="cytotoxicity call" endpointvalue=active
